System: Escherichia coli TOP10;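 note: peptides expressed intracellularly from a pBAD plasmid library in pooled LB shake-flask culture, induced with 0.3% L-arabinose, DNA abundance read by NGS, three biological replicates, DESeq2 with apeglm shrinkage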
Assay Text: shrunken log2 fold change of peptide-encoding DNA abundance (4.5 h post-induction vs induction); higher = less antimicrobial activity (less host growth inhibition)
Conditions: time post-induction: 4.5 h; library: site-saturation at positions 5, 18, 19, 20
Everything with shrunken log2 fold change lower than 0.1 is N; everything else, including exactly 0.1, is Y.

Solved cases below.
[
  {
    "Construct Sequence": "RRIRVRPPRLPRPRPRPNLKPRP",
    "Answer Label": "N"
  },
  {
    "Construct Sequence": "RRIRTRPPRLPRPRPRPTYGPRP",
    "Answer Label": "N"
  },
  {
    "Construct Sequence": "RRIRWRPPRLPRPRPRPRCMPRP",
    "Answer Label": "Y"
  },
  {
    "Construct Sequence": "RRIRIRPPRLPRPRPRPCGWPRP",
    "Answer Label": "N"
  },
  {
    "Construct Sequence": "RRIRIRPPRLPRPRPRPYVDPRP",
    "Answer Label": "N"
  }
]

Request: Form field: shrunken log2 fold change at least 0.1? Entry: RRIRGRPPRLPRPRPRPYLTPRP
Result: N

Request: Form field: shrunken log2 fold change at least 0.1? Entry: RRIRGRPPRLPRPRPRPSIMPRP
Result: Y

Request: Form field: shrunken log2 fold change at least 0.1? Entry: RRIRDRPPRLPRPRPRPFERPRP
Result: N

Request: Form field: shrunken log2 fold change at least 0.1? Entry: RRIRYRPPRLPRPRPRPQMHPRP
Result: N

Request: Form field: shrunken log2 fold change at least 0.1? Entry: RRIRRRPPRLPRPRPRPRVWPRP
Result: Y

Request: Form field: shrunken log2 fold change at least 0.1? Entry: RRIRMRPPRLPRPRPRPLWYPRP
Result: Y

Request: Form field: shrunken log2 fold change at least 0.1? Entry: RRIRTRPPRLPRPRPRPNTWPRP
Result: N

Request: Form field: shrunken log2 fold change at least 0.1? Entry: RRIRTRPPRLPRPRPRPPLDPRP
Result: Y
